# targetSystem: Testis-specific serine/threonine-protein kinase 1 (Homo sapiens) (UniProt Q9BXA7);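 note: mean percent inhibition of TSSK1, from the GSK PKIS screening dataset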
# Sequence (Q9BXA7 whole entry): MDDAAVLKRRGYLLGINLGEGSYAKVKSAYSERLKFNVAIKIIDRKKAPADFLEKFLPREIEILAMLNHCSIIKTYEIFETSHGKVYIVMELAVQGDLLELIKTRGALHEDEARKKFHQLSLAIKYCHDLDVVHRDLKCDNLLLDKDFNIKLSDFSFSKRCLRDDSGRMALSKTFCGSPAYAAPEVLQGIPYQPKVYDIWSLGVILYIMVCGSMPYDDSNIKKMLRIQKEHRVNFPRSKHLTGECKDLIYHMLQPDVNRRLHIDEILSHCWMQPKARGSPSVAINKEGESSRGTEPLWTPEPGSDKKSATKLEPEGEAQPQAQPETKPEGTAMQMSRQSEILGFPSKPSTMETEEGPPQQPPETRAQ
# experimentalSetup: at 0.1 µM
quantityName: inhibition (%)
Provide only the numeric value, understood in %.

- compound: "CCS(=O)(=O)c1ccc(OC)c(Nc2ncc(-c3cccc(OC)c3)o2)c1"
  inhibition / %: 1.15

What inhibition value was documented for this compound, CCCN1CCCC(c2ccc(Nc3nc(Nc4cc(F)ccc4C(N)=O)c4cc[nH]c4n3)c(OC)c2)C1 (stereo not drawn) ?
81

What inhibition value was documented for this compound, COC(=O)c1cncc(/C=C/c2c(C)cc(O)cc2C)c1 ?
2.95

---

# targetSystem: Serine/threonine-protein kinase PAK 2 (Homo sapiens);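 note: reported values are mean inhibition of PAK2, averaged over measurements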
# experimentalSetup: at 1 µM
quantityName: inhibition (%)
Provide only the numeric value, understood in %.

- compound: "CN(C)C(=O)O[C@@H]1CN[C@@H](C#Cc2cc3ncnc(Nc4ccc(OCc5cccc(F)c5)c(Cl)c4)c3s2)C1"
  unitsOfMeasure: "%"
  inhibition: -0.42
- compound: "CCOc1nccc2c1nc(-c1nonc1N)n2CC"
  unitsOfMeasure: "%"
  inhibition: 1.74
- compound: "CCCN1CCCC(c2ccc(Nc3nc(Nc4cc(F)ccc4C(N)=O)c4cc[nH]c4n3)c(OC)c2)C1 (stereo unspecified)"
  unitsOfMeasure: "%"
  inhibition: 3.33
- compound: "Cc1ccc(Nc2ccnc(Nc3cccc(C(N)=O)c3)n2)cc1O"
  unitsOfMeasure: "%"
  inhibition: 1.45
- compound: "Cc1cc(-c2ccccn2)cc(C)c1/C=C/c1cncc(-c2nn[nH]n2)c1"
  unitsOfMeasure: "%"
  inhibition: 2.95

Next, consider the following compound.
What inhibition value was documented for this compound, COc1cc2ncnc(Nc3ccc(C)c(O)c3)c2cc1OC ?
2.35

---

# targetSystem: Leucine-rich repeat serine/threonine-protein kinase 2 (Homo sapiens) (UniProt Q5S007);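 note: reported values are averaged percent inhibition of LRRK2 kinase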
# Sequence (Q5S007 whole entry): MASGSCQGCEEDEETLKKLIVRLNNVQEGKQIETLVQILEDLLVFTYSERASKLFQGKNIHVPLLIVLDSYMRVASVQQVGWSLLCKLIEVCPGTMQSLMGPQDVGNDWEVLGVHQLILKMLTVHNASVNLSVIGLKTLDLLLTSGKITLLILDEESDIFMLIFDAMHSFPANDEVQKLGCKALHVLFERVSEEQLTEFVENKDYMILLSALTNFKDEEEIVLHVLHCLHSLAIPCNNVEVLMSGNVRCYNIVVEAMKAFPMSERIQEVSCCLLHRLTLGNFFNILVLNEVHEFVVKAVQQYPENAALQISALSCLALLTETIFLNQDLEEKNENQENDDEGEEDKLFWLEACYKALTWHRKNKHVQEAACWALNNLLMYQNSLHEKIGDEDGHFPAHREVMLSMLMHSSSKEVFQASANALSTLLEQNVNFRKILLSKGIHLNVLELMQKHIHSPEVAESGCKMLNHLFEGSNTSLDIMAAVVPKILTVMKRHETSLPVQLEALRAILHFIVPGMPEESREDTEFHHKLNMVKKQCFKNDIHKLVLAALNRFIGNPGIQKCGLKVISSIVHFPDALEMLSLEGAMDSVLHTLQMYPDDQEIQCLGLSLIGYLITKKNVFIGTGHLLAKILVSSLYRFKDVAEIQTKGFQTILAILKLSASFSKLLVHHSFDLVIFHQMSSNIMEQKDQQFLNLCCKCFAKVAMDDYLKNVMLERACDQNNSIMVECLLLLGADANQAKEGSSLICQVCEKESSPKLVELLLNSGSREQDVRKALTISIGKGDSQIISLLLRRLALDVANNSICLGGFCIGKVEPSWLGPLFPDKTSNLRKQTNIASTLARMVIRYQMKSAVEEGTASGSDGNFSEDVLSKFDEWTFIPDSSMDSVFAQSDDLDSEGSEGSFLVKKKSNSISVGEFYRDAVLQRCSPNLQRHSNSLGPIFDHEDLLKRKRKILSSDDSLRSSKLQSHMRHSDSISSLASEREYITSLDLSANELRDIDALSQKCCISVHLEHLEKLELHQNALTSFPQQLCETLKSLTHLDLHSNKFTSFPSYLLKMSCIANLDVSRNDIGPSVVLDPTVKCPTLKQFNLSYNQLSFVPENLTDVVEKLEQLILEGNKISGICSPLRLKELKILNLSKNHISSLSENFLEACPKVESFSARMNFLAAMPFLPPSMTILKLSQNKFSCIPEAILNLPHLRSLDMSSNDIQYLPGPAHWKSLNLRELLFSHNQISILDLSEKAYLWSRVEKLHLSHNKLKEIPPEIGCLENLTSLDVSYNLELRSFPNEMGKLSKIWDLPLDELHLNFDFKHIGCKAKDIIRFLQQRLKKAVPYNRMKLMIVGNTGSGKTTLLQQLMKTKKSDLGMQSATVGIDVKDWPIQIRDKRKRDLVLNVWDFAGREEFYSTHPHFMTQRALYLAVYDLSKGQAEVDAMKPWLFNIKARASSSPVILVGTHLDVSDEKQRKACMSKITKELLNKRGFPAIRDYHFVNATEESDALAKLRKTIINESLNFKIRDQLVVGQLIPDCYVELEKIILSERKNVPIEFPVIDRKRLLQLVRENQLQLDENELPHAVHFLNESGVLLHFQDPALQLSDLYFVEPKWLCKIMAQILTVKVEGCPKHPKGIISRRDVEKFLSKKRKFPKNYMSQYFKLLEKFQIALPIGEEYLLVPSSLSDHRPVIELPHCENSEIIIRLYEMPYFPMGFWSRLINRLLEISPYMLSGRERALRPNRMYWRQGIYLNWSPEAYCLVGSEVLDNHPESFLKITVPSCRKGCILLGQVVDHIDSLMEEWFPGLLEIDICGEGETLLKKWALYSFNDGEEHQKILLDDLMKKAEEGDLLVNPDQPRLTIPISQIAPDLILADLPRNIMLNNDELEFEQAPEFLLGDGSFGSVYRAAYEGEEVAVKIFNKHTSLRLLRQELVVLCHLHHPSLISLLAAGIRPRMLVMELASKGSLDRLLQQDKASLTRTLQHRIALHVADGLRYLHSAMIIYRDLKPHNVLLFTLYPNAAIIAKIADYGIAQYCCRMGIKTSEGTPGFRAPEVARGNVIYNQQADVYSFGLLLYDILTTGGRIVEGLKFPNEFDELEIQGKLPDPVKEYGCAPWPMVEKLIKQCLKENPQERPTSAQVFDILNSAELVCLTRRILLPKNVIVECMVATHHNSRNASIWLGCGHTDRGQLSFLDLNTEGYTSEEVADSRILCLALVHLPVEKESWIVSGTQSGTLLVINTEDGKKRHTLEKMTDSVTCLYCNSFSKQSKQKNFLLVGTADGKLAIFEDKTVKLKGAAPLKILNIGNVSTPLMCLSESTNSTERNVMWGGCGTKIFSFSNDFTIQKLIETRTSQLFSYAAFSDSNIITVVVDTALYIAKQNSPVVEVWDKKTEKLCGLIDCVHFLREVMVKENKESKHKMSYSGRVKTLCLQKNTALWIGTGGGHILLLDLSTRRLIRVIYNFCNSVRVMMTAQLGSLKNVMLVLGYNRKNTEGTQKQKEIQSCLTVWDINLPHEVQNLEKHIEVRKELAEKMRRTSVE
# experimentalSetup: at 0.1 µM
quantityName: inhibition (%)
Provide only the numeric value, understood in %.

The examples below pair each entry with its known result.
- smilesRecord: "Cc1cc(-c2ccccn2)cc(C)c1/C=C/c1cncc(-c2nn[nH]n2)c1"
  quantityName: "inhibition"
  reading: 1.5
- smilesRecord: "COC(=O)c1cncc(/C=C/c2c(C)cc(O)cc2C)c1"
  quantityName: "inhibition"
  reading: 1.53

Next, consider the following molecule.
What inhibition value was documented for this molecule, CCS(=O)(=O)c1ccc(OC)c(Nc2ncc(-c3cccc(OC)c3)o2)c1 ?
5.57

---

# Tested on: Platelet-derived growth factor receptor alpha (Homo sapiens), P16234 [D842V]
# experimentalSetup: at 1 µM
Classification field: enter criterion met for inhibition values not below 7%, criterion not met for values below it.

# example entries with known answers
- smilesRecord: "CC(C)c1ccc(Nc2nccc(-c3cnn4ncccc34)n2)cc1"
  assignedCategory: "criterion met"
- smilesRecord: "ON=C1CCc2cc(-c3nc(C4CCNCC4)[nH]c3-c3ccncc3)ccc21"
  assignedCategory: "criterion not met"
- smilesRecord: "COC(=O)c1ccc2c(c1)C(=Cc1cc(Br)c(O)c(Br)c1)C(=O)N2"
  assignedCategory: "criterion met"
- smilesRecord: "C[C@@H](Oc1cc(-n2cnc3ccc(OCC4CCN(C)CC4)cc32)sc1C(N)=O)c1ccccc1C(F)(F)F"
  assignedCategory: "criterion met"

Confirm if inhibition reported for the compound COc1ccc(-c2nn3ncccc3c2-c2ccnc(Nc3cccc(C(F)(F)F)c3)n2)cc1 is 7% or above.
criterion not met

Confirm if inhibition reported for the compound CN(C)C(=O)O[C@H]1CN[C@H](C#Cc2cc3ncnc(Nc4ccc(OCc5cccc(F)c5)c(Cl)c4)c3s2)C1 is 7% or above.
criterion not met

---

# targetSystem: Ribosomal protein S6 kinase alpha-6 (Homo sapiens) (UniProt Q9UK32);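 note: each value is a mean inhibition of RSK4 from a GSK PKIS panel screen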
# Sequence (Q9UK32 whole entry): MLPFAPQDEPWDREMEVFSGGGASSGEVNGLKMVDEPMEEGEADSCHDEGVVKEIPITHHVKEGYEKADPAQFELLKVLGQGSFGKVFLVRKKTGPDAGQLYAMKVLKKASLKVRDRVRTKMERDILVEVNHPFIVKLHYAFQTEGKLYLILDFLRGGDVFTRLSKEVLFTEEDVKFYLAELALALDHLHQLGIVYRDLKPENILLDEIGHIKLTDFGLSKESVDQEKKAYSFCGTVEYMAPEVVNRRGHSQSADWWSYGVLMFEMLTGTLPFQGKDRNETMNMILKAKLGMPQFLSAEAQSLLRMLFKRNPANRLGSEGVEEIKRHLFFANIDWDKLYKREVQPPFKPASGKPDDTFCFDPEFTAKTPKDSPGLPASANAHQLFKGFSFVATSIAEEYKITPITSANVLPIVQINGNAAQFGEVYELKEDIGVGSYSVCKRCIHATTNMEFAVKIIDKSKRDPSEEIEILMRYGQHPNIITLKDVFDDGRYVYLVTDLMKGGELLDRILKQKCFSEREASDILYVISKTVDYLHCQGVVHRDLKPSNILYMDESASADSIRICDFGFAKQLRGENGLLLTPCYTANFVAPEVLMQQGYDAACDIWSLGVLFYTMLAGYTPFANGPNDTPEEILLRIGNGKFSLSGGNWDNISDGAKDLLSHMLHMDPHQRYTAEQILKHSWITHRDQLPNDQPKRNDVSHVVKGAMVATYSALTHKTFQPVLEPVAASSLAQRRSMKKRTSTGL
# experimentalSetup: at 1 µM
quantityName: inhibition (%)
Provide only the numeric value, understood in %.

The examples below pair each entry with its known result.
- smilesRecord: "Nc1nccc(-c2c(-c3ccc(F)cc3)ncn2CCCN2CCOCC2)n1"
  targetSystem: "Ribosomal protein S6 kinase alpha-6 (Homo sapiens) (UniProt Q9UK32)"
  unitsOfMeasure: "%"
  reading: 3.56
- smilesRecord: "CN(C)C(=O)O[C@@H]1CN[C@@H](C#Cc2cc3ncnc(Nc4ccc(OCc5cccc(F)c5)c(Cl)c4)c3s2)C1"
  targetSystem: "Ribosomal protein S6 kinase alpha-6 (Homo sapiens) (UniProt Q9UK32)"
  unitsOfMeasure: "%"
  reading: 1.1
- smilesRecord: "CS(=O)(=O)Nc1cccc(-c2ccc3c(NC(=O)C4CC4)n[nH]c3c2)c1"
  targetSystem: "Ribosomal protein S6 kinase alpha-6 (Homo sapiens) (UniProt Q9UK32)"
  unitsOfMeasure: "%"
  reading: 1.64
- smilesRecord: "COc1ccc(-c2nn3ncccc3c2-c2ccnc(Nc3cccc(C(F)(F)F)c3)n2)cc1"
  targetSystem: "Ribosomal protein S6 kinase alpha-6 (Homo sapiens) (UniProt Q9UK32)"
  unitsOfMeasure: "%"
  reading: 0.26
- smilesRecord: "NS(=O)(=O)c1ccc(N/N=C2\\C(=O)Nc3ccc(Cl)cc32)cc1"
  targetSystem: "Ribosomal protein S6 kinase alpha-6 (Homo sapiens) (UniProt Q9UK32)"
  unitsOfMeasure: "%"
  reading: 3.15
- smilesRecord: "c1ccc(Nc2ncc(-c3ccccc3)o2)cc1"
  targetSystem: "Ribosomal protein S6 kinase alpha-6 (Homo sapiens) (UniProt Q9UK32)"
  unitsOfMeasure: "%"
  reading: 3.23

Next, consider the following molecule.
What inhibition value was documented for this molecule, COC(=O)c1ccc2c(c1)C(=Cc1cc(Br)c(O)c(Br)c1)C(=O)N2 ?
7.3

---

# Test system: Serine/threonine-protein kinase B-raf (Homo sapiens), P15056 [V600E];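 note: mean inhibition of the BRAF V599E mutant, from GSK PKIS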
# Sequence (P15056 whole entry V600E): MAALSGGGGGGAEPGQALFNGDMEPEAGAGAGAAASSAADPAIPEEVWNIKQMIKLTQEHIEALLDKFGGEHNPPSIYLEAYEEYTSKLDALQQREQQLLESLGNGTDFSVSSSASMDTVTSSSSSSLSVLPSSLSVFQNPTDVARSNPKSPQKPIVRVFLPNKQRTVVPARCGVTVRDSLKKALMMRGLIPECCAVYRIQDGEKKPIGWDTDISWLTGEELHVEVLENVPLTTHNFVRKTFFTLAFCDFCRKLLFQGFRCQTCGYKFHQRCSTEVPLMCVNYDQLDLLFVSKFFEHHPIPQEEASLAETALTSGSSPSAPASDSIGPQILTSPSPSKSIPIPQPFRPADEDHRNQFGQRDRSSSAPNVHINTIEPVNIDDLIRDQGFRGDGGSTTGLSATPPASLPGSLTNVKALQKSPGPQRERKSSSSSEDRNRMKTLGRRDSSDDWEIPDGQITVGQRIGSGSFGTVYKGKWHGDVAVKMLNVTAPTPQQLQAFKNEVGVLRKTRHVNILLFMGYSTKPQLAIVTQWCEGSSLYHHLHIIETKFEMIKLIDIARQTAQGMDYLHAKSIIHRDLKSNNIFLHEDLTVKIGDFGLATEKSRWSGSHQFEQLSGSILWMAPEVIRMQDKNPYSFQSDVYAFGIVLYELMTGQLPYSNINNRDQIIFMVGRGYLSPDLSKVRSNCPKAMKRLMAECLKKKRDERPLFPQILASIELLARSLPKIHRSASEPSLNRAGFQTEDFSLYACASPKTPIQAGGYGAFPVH
# experimentalSetup: at 0.1 µM
# Description: GSK_PKIS: BRAF (V599E mutant) mean inhibition at 0.1 uM [Nanosyn]
quantityName: inhibition (%)
Provide only the numeric value, understood in %.

The examples below pair each entry with its known result.
- smilesRecord: "COc1cc(Nc2nccc(-c3cnn4ncccc34)n2)cc(OC)c1"
  inhibition [%]: 4.91
- smilesRecord: "Nc1nccc(-c2c(-c3ccc(F)cc3)ncn2CCCN2CCOCC2)n1"
  inhibition [%]: 6.08
- smilesRecord: "COc1cc2ncn(-c3cc(OCc4ccccc4S(C)(=O)=O)c(C#N)s3)c2cc1OC"
  inhibition [%]: 4.97
- smilesRecord: "Oc1cccc(-c2nc(-c3ccccc3)[nH]c2-c2ccncc2)c1"
  inhibition [%]: 12.8
- smilesRecord: "Cc1ccc(C(=O)NC2CC2)cc1-c1ccc2[nH]ncc2c1"
  inhibition [%]: -3.87

Look up inhibition with Serine/threonine-protein kinase B-raf (Homo sapiens), P15056 [V600E] for this compound: CN(C)C(=O)O[C@@H]1CN[C@@H](C#Cc2cc3ncnc(Nc4ccc(OCc5cccc(F)c5)c(Cl)c4)c3s2)C1
0.85

Look up inhibition with Serine/threonine-protein kinase B-raf (Homo sapiens), P15056 [V600E] for this compound: CC(C)c1ccc(Nc2nccc(-c3cnn4ncccc34)n2)cc1
5.11

Look up inhibition with Serine/threonine-protein kinase B-raf (Homo sapiens), P15056 [V600E] for this compound: Nc1nccc(C#Cc2cncnc2Nc2ccc(OCc3cccc(F)c3)c(Cl)c2)n1
3.75

---

Each record here notes measured inhibition.
# targetSystem: Dual specificity tyrosine-phosphorylation-regulated kinase 1B (Homo sapiens) (UniProt Q9Y463);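 note: values are mean percent inhibition of DYRK1B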
# Sequence (Q9Y463 whole entry, looked up): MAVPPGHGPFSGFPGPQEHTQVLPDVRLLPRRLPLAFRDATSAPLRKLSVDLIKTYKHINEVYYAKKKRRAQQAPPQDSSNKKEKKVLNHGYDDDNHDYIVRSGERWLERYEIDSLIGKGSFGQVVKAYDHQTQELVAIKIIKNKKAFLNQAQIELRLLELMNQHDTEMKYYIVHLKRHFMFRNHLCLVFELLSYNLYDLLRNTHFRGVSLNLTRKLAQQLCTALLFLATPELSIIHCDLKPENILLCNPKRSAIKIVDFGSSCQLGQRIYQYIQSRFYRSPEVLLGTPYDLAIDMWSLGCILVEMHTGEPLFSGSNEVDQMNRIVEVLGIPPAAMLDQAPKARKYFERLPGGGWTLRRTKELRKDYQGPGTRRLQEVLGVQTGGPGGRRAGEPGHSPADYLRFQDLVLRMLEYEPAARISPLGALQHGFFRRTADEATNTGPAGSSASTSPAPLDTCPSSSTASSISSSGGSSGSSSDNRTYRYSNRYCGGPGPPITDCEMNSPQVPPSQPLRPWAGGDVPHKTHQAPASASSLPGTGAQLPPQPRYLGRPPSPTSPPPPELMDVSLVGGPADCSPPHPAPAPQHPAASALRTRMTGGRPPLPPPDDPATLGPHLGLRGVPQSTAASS
# experimentalSetup: at 0.1 µM
Provide only the numeric value, understood in %.

The examples below pair each entry with its known result.
- smilesRecord: "COc1ccc(-c2nn3ncccc3c2-c2ccnc(Nc3cccc(C(F)(F)F)c3)n2)cc1"
  quantityName: "inhibition"
  reading: -0.34
- smilesRecord: "COc1cc2ncnc(Nc3ccc(C)c(O)c3)c2cc1OC"
  quantityName: "inhibition"
  reading: 0.95

What inhibition value was documented for this compound, OCc1ccc(-c2nc(-c3ccccn3)c(-c3ccc4c(c3)OCO4)[nH]2)cc1 ?
0.33

---

# targetSystem: Platelet-derived growth factor receptor alpha (Homo sapiens)
# experimentalSetup: at 1 µM
quantityName: inhibition

The examples below pair each entry with its known result.
- smilesRecord: "CCS(=O)(=O)c1ccc(OC)c(Nc2ncc(-c3cccc(OC)c3)o2)c1"
  inhibition: "58.4%"
- smilesRecord: "N#Cc1c(NC(=O)c2ccccc2F)sc2c1CCCC2"
  inhibition: "5.27%"
- smilesRecord: "Cc1ccc2c(c1)/C(=N/Nc1ccc(S(N)(=O)=O)cc1)C(=O)N2"
  inhibition: "37.7%"
- smilesRecord: "[O-][S+]1CCN(Cc2ccc(-c3ccc4ncnc(Nc5ccc(OCc6ccccc6)c(Cl)c5)c4c3)o2)CC1"
  inhibition: "11.8%"
- smilesRecord: "c1ccc(Nc2ncc(-c3ccccc3)o2)cc1"
  inhibition: "30.3%"

What inhibition value was documented for this molecule, Cc1ccc2c(-c3ccnc(Nc4cccc(C(F)(F)F)c4)n3)c(-c3ccccc3)nn2n1 ?
61%

---

# targetSystem: Dual specificity tyrosine-phosphorylation-regulated kinase 1A (Homo sapiens)
# experimentalSetup: at 0.1 µM
# Description: GSK_PKIS: DYRK1A mean inhibition at 0.1 uM [Nanosyn]
quantityName: inhibition (%)
Provide only the numeric value, understood in %.

The examples below pair each entry with its known result.
- smilesRecord: "CN(C)C(=O)O[C@H]1CN[C@H](C#Cc2cc3ncnc(Nc4ccc(OCc5cccc(F)c5)c(Cl)c4)c3s2)C1"
  inhibition [%]: 1.54
- smilesRecord: "CCS(=O)(=O)c1ccc(OC)c(Nc2nccc(N(C)c3ccc4c(C)n[nH]c4c3)n2)c1"
  inhibition [%]: 2.89
- smilesRecord: "NS(=O)(=O)c1ccc(Nc2cc(-c3cccc(O)c3)n[nH]2)cc1"
  inhibition [%]: 3.45
- smilesRecord: "NS(=O)(=O)c1ccc(N/N=C2\\C(=O)Nc3ccc(Cl)cc32)cc1"
  inhibition [%]: 1.08
- smilesRecord: "Cc1cc(-c2ccccn2)cc(C)c1/C=C/c1cncc(-c2nn[nH]n2)c1"
  inhibition [%]: 2.5

What inhibition value was documented for this compound, NS(=O)(=O)c1ccc(-c2cc3ccncc3cc2OCc2ccccc2)cc1 ?
1.26

What inhibition value was documented for this compound, C[C@@H](Oc1cc(-n2cnc3ccc(OCC4CCN(C)CC4)cc32)sc1C(N)=O)c1ccccc1C(F)(F)F ?
-2.42

What inhibition value was documented for this compound, NS(=O)(=O)c1cccc(Nc2cc(-c3ccc(F)cc3)n[nH]2)c1 ?
-0.01

What inhibition value was documented for this compound, Cc1ccc(Nc2ccnc(Nc3cccc(C(N)=O)c3)n2)cc1O ?
2.45

What inhibition value was documented for this compound, COc1cccc(-n2ncc3c(N/N=C/c4ccc(S(C)(=O)=O)cc4)ncnc32)c1 ?
23.1

What inhibition value was documented for this compound, Cc1ccc(O)cc1Nc1ccnc2ccc(S(C)(=O)=O)cc12 ?
4.16

What inhibition value was documented for this compound, Cc1ccc2c(c1)/C(=N/Nc1ccc(S(N)(=O)=O)cc1)C(=O)N2 ?
-1.04

What inhibition value was documented for this compound, NC(=O)c1cccc(Nc2nccc(Nc3cccc(F)c3)n2)c1 ?
0.47

What inhibition value was documented for this compound, COc1ccc2ncnc(Nc3ccc(OCc4ccccc4)cc3)c2c1 ?
1.05
